Assay remarks: GFP drop in mixed WT/humanized-ribosome E. coli culture – GFP/RFP fluorescence, OD600, single point, bacterial rRNA inhibitor project, primary screen (AID 720706)
Experimental parameters: E. coli WT GFP vs humanized-ribosome RFP mutants, 24 h; measured here: RFP humanized mutant strains, DMSO median 0, no signal -100, concentration not given here
The campaign covered roughly 350,000 compounds. About 5,500 (1.6%) were called active. The full list was thinned out, with actives kept by preference.
Endpoint name: RFP signal change (%)
# output: bare number, implied unit %

What value of RFP signal change has been recorded for this entry: N#C[C@H]1[C@H](c2ccccc2-c2ccc(F)cc2)[C@H](CO)N1C(=O)Cc1ccncc1 -0.986

What value of RFP signal change has been recorded for this entry: C[C@H](CO)N1C[C@H](C)[C@H](CN(C)C)Oc2ccc(NC(=O)c3ccncc3)cc2CC1=O 0.42

What value of RFP signal change has been recorded for this entry: O=C(Nc1ccc(C(F)(F)F)cc1)N[C@@H]1CC[C@H](CCNC(=O)c2ccccc2F)O[C@@H]1CO 3.96

What value of RFP signal change has been recorded for this entry: C/C=C/c1cccc(-c2nc(C(=O)NCCN3CCCC3)cc3c2[C@@H](CCO)N([S@](=O)C(C)(C)C)C3)c1 -0.457

What value of RFP signal change has been recorded for this entry: COc1ccc2c3c([nH]c2c1)[C@@H](CO)N(C(=O)CC1CC1)CC31CCN(Cc2cccnc2)CC1 3.46

What value of RFP signal change has been recorded for this entry: COc1ccccc1C(=O)Nc1ccc2c(c1)C(=O)N(C)C[C@@H](OC)[C@@H](C)CN(CC1CC1)[C@@H](C)CO2 0.12

What value of RFP signal change has been recorded for this entry: C[C@@H]1CN([C@H](C)CO)S(=O)(=O)c2ccc(C#CC(C)(C)O)cc2O[C@@H]1CN(C)Cc1ccccc1 -1.75

What value of RFP signal change has been recorded for this entry: Cc1noc(C)c1NC(=O)N(C)C[C@@H]1Oc2ccc(NC(=O)CCN3CCOCC3)cc2CC(=O)N([C@H](C)CO)C[C@@H]1C -1.87

Provenance of the data: PubChem BioAssay AID720706
